read-out: Vascular cell adhesion molecule 1 (VCAM1), VCAM1 (gene 7412); test: BSK_CASM3C_VCAM1: BioMAP Diversity Plus: CASM3C Assay for Vascular cell adhesion molecule 1 (VCAM1) Biomarker Activity (AID 2283055); conditions: primary human coronary artery smooth muscle cells; actives raise or lower the signal;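 note: VCAM-1 protein level quantified by ELISA on the cells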
Calls of active or inactive are those of the source. Rule for the calls: active = hit-call score of the fitted dose curve at least 0.9, where 1 is the maximum; inactive = score below 0.9.
Entry note: the call must match one of 1 (yes) = active, 0 (no) = inactive

Consider the following illustrative entries.
| Compound | Qualitative label |
| --- | --- |
| COc1ccc2nc(N)sc2c1 | 0 (no) |
| CC1OC1C1CCC2(C)OC2C1 (stereo unspecified) | 0 (no) |
| C=CCOc1c(Br)cc(Br)cc1Br | 1 (yes) |
| CCCCCCCCc1ccc(Nc2ccc(CCCCCCCC)cc2)cc1 | 0 (no) |
| CC(C)(c1cc(Br)c(OCCO)c(Br)c1)c1cc(Br)c(OCCO)c(Br)c1 | 1 (yes) |

Asked: Please state the recorded outcome for this compound: COCc1c(C(C)C)nc(C(C)C)c(/C=C/[C@@H](O)C[C@@H](O)CC(=O)O)c1-c1ccc(F)cc1
Given back: 0 (no)
